tested on: HBV strain WT; test: HBV DR Assay, strain WT; format: cell-based; settings: Hepatitis B virus
measured.attribute: EC50 (nM)

| molecule | measured.on | value.unit | data.value |
| --- | --- | --- | --- |
| C#Cc1cn([C@@H]2C=C(CO)C(O)C2O)c2ncnc(N)c12 (stereo partly shown) [Compound 27, 7-Deaza-7-Acetylene-Neplanocin A] | HBV strain WT | nM | 2500 |

---

test system: PIV; experiment: antiviral assay, PIV in MA-104; assay type: cell-based, parainfluenza virus; details: MA104, NR
pEC50: −log10 of the molar value. Where a name gives a salt, the structure may show the parent alone.

| compound | measured.on | pEC50 |
| --- | --- | --- |
| Nc1nccc2c1ncn2[C@@H]1C=C(CO)[C@@H](O)[C@H]1O [Compound 3-DNPA, Hydrochloride] | PIV | < 4.00 |

---

system: Adeno; experiment: antiviral assay, Adeno in A-549; format: cell-based; settings: unidentified adenovirus, A549, Adeno, NR
pEC50: −log10 of the molar value. Where a name gives a salt, the structure may show the parent alone.

| compound | measured.on | pEC50 |
| --- | --- | --- |
| Nc1nccc2c1ncn2[C@@H]1C=C(CO)[C@@H](O)[C@H]1O [Compound 3-DNPA, Hydrochloride] | Adeno | 4.77 |

---

tested on: Yellow Fever; test: organism not typed; type: cell-based; details: Vero
Structures can show the parent of a compound that is named as a salt.

| compound | EC50 |
| --- | --- |
| Nc1nccc2c1ncn2[C@@H]1C=C(CO)[C@@H](O)[C@H]1O [Compound 3-DNPA, Hydrochloride] | > 100 µM |

---

test system: Vaccinia; assay: microbe, parasite or virus in culture; assay type: cell-based, vaccinia virus; settings: VV; CPE; HFF Cells (Table 3); read-out: EC50
pEC50: −log10 of the molar value.
measured.attribute: pEC50

| smiles.text | data.value |
| --- | --- |
| Nc1nccc2ncn([C@@H]3C=C(CO)[C@@H](O)[C@H]3O)c12 | < 3.52 |

---

system: Flu A (H1N1); assay: microbe, parasite or virus in culture; type: cell-based; conditions: NR, MDCK, read-out: EC50
pEC50: −log10 of the molar value.

| smiles.text | measured.on | pEC50 |
| --- | --- | --- |
| Nc1nccc2ncn([C@@H]3C=C(CO)[C@@H](O)[C@H]3O)c12 | Flu A (H1N1) | < 4.49 |

---

tested on: Vaccinia; test: microbe, parasite or virus in culture; type: cell-based, vaccinia virus; conditions: Vaccinia; HFF cells; CPE reduction assay; read-out: EC50
measured.attribute: EC50 (µM)

| compound | measured.attribute | value.unit | data.value |
| --- | --- | --- | --- |
| Nc1ncnc2c1ccn2[C@@H]1C=C(CO)[C@@H](O)[C@H]1O [7-deaza neplanocin A] | EC50 | µM | 3.4 |

---

test: cytotoxicity in the HCV RNA replicon assay; settings: HT @ 5 μM

| compound | IC50 |
| --- | --- |
| Nc1ncnc2c1c(I)cn2[C@@H]1C=C(CO)C(O)C1O (stereo partly shown) | > 5 µM |

---

tested on: Yellow Fever; experiment: organism not typed; assay type: cell-based; settings: YF; Visual; Vero; read-out: EC50
pEC50: −log10 of the molar value.

| smiles.text | pEC50 |
| --- | --- |
| Nc1nccc2ncn([C@@H]3C=C(CO)[C@@H](O)[C@H]3O)c12 | < 4.00 |
